Hey, just so you know, these numbers are from patent US11807625B2.

# Method Description: PK of compound of Formula (Ia) after single subcutaneous dose of solution formulations in Wistar Han rats
# Format: in vivo
# Condition Description: male, Wistar Han, rat, plasma, sc, 50 mg/kg, 336 h; mean, n = 5 rats; SC 50 mg/kg; solution T, 400 mg/mL

Cpd Smiles | Measurement Unit | concentration at 336 h
CC(C)(C#Cc1ccc(-c2ccc(Cl)c3c(NS(C)(=O)=O)nn(CC(F)(F)F)c23)c([C@H](Cc2cc(F)cc(F)c2)NC(=O)Cn2nc(C(F)(F)F)c3c2C(F)(F)[C@@H]2C[C@H]32)n1)S(C)(=O)=O | nM | 254

---

# Method Description: PK of compound of Formula (Ia) after single subcutaneous dose of solution formulations in Wistar Han rats
# Type: in vivo
# Condition Description: male, Wistar Han, rat, plasma, sc, 50 mg/kg, male Wistar Han rats, single SC 50 mg/kg, 400 mg/mL solution AA (6.25% poloxamer 188), mean ± SD, n = 4; read-out: AUC0-3696 h

Molecule | AUC(0-t) / µM·h
CC(C)(C#Cc1ccc(-c2ccc(Cl)c3c(NS(C)(=O)=O)nn(CC(F)(F)F)c23)c([C@H](Cc2cc(F)cc(F)c2)NC(=O)Cn2nc(C(F)(F)F)c3c2C(F)(F)[C@@H]2C[C@H]32)n1)S(C)(=O)=O [compound of Formula (Ia)] | 289

---

# Method Description: PK of compound of Formula (Ia) after single subcutaneous dose of solution formulations in beagle dogs
# Assay type: in vivo
# Condition Description: male, beagle, dog, plasma, sc, 12 mg/kg, beagle dogs, SC 12 mg/kg, 400 mg/mL solution AA (6.25% poloxamer 188), 168 h, animals #1-#3

Cpd Smiles | concentration at 168 h [nM]
CC(C)(C#Cc1ccc(-c2ccc(Cl)c3c(NS(C)(=O)=O)nn(CC(F)(F)F)c23)c([C@H](Cc2cc(F)cc(F)c2)NC(=O)Cn2nc(C(F)(F)F)c3c2C(F)(F)[C@@H]2C[C@H]32)n1)S(C)(=O)=O | 106

---

# Method Description: PK of compound of Formula (Ia) after single subcutaneous dose of solution formulations in beagle dogs
# Assay type: in vivo
# Condition Description: male, beagle, dog, plasma, sc, 12 mg/kg, beagle dogs, SC 12 mg/kg, 400 mg/mL solution AA (6.25% poloxamer 188), 3.00 h, Mean n = 3

Compound | concentration at 3 h
CC(C)(C#Cc1ccc(-c2ccc(Cl)c3c(NS(C)(=O)=O)nn(CC(F)(F)F)c23)c([C@H](Cc2cc(F)cc(F)c2)NC(=O)Cn2nc(C(F)(F)F)c3c2C(F)(F)[C@@H]2C[C@H]32)n1)S(C)(=O)=O [compound of Formula (Ia)] | 13.8 nM

---

# Method Description: PK of compound of Formula (Ia) after single subcutaneous dose of solution formulations in Wistar Han rats
# Type: in vivo
# Condition Description: male, Wistar Han, rat, plasma, sc, 50 mg/kg, Wistar Han rats, SC 50 mg/kg, 500 mg/mL solution X (5.00% ethanol, 1.91% poloxamer 188), 1680 h, Mean n = 3
Reported Property: concentration at 1680 h (nM)

Cpd Smiles | Observed
CC(C)(C#Cc1ccc(-c2ccc(Cl)c3c(NS(C)(=O)=O)nn(CC(F)(F)F)c23)c([C@H](Cc2cc(F)cc(F)c2)NC(=O)Cn2nc(C(F)(F)F)c3c2C(F)(F)[C@@H]2C[C@H]32)n1)S(C)(=O)=O | 247
